Values from patent US12403128B2

- ASSAY_DETAILS: Behavioral toxicity (TOX, TD50), rats
- Format: in vivo
- TEST_CONDITIONS: rat, in vivo, IP, Table 15, read-out: TOX TD50
RECORDED_METRIC: TD50

- COc1ccc(-c2nc3ccccc3[nH]2)cc1: > 500 mg/kg
- Clc1ccc2nc(-c3ccccc3)[nH]c2c1: > 500 mg/kg

---

- ASSAYED_SYSTEM: NaV1.5 (Homo sapiens, UniProt Q14524)
- Sequence (Q14524 whole entry): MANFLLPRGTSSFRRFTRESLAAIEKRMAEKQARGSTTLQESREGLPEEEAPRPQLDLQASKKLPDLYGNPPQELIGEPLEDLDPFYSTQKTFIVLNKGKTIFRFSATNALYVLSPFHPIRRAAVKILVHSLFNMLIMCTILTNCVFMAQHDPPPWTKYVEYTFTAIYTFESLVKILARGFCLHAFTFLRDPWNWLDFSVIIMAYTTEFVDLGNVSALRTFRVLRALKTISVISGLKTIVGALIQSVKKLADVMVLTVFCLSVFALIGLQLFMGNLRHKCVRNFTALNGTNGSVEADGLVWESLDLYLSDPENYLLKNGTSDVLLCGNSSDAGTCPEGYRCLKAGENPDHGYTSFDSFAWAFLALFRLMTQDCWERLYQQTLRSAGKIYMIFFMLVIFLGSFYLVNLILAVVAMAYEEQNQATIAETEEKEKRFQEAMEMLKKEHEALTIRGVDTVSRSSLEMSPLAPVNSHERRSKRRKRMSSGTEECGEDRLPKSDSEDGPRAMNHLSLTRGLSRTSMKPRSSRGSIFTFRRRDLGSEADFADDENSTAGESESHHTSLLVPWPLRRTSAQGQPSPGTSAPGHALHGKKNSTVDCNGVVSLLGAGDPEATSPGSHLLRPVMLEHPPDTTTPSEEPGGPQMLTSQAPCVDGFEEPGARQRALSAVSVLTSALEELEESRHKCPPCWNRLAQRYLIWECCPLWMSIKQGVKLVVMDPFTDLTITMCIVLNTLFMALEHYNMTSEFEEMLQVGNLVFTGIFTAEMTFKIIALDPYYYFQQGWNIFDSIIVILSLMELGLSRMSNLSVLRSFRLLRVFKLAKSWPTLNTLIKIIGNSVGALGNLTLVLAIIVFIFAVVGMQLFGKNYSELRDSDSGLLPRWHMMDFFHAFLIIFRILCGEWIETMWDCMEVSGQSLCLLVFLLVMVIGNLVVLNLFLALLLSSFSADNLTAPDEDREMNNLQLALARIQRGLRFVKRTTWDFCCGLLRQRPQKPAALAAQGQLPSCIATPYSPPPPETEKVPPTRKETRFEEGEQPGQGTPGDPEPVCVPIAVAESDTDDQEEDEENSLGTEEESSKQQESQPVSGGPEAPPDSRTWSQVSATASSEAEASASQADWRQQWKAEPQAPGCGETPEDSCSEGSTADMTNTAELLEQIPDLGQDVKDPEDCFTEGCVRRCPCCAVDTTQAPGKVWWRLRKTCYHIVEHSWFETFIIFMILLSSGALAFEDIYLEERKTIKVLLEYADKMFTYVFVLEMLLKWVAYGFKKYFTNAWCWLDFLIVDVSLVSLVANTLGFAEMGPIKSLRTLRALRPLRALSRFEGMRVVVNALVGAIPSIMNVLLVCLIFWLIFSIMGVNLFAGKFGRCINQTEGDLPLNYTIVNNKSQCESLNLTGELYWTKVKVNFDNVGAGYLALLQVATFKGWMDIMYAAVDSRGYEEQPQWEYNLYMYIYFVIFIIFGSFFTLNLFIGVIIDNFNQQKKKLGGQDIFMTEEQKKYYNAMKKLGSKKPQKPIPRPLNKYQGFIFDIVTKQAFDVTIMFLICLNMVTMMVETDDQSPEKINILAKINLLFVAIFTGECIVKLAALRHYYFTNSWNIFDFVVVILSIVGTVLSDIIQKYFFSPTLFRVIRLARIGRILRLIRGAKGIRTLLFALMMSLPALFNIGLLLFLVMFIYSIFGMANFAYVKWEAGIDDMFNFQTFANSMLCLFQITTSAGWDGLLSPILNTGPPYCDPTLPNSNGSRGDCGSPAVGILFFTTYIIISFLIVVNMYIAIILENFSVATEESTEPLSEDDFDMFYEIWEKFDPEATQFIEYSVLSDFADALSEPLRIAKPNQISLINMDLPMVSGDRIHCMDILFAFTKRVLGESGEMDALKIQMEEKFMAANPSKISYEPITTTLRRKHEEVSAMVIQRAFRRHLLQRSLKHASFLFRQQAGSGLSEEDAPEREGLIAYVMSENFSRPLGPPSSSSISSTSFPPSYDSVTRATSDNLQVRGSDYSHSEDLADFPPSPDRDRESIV
- ASSAY_DETAILS: High-throughput flux assay, NaV1.5;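 further: IC50 from the flux assay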
- Type: cell-based
- TEST_CONDITIONS: human isoform
pIC50: −log10 of the molar value. Where a name gives a salt, the structure may show the parent alone.
RECORDED_METRIC: pIC50

• Cc1nc(-c2cccc(Cl)c2)[nH]c1-c1ccccc1 = 5.44
• COc1ccc(-c2nc(C)c(-c3ccccc3)[nH]2)cc1 [MV1501, hydrochloride] = 5.20
• CC(=O)Nc1ccc(-c2nc(C)c(-c3ccccc3)[nH]2)cc1 [MV1509, hydrochloride] = 5.10
• COc1ccc(-c2nc(C)c(-c3ccccc3)[nH]2)cc1O [MV1508, hydrochloride] = 5.58
• Cc1nc(-c2cccc(C(F)(F)F)c2)[nH]c1-c1ccccc1 [MV1504, hydrochloride] = 5.36
• Cc1nc(-c2ccc(Cl)cc2)[nH]c1-c1ccccc1 [MV1502, hydrochloride] = 5.31
